The measurements presented in this section are drawn from the supplement of paper PMC9170038.

# System: K4 kissing-loop RNA reporter
# RUN DESCRIPTION: apparent KD of K4 kissing-loop reporter; higher = weaker reporter binding
# CONDITION NOTES: Eterna round: R107; input ligand: theophylline 20 uM
MEASURE NAME: apparent KD of K4 kissing-loop reporter (nM)
Write down the numeric answer in nM and omit the unit.

For the sequence shown here, GGAGGGAUCUCGGCCGCCACUCGUGGGAAAUGGGCCUCAGGGAUAUAGUGAUGUUAUGUAAAGAAGAGGACCGGGAGAAGGAAGG [ExTryptoB.Dg] , give the reported apparent KD of K4 kissing-loop reporter.
366

What measured apparent KD of K4 kissing-loop reporter goes with UAACUCUUGCAGUGAUGUUGCAAGUAUGCUCAGGAUAUCAGGAAACUGAGAAGGGAGUUUCCUGAGCUUCUGCAAGAGCUCAGAA [KL-SSFMN-A6] ?
375

Consider the sequence ACGCCGAGGACGGCCGCCACUAUGACGAAGUCCGUUCCUAUUACUGCGCGAGUGAUGUUCACGACUAGGACCGGGUCUAUGAGCU [theeternabot_exclusion_KL_Trp_B_28] and give its measured apparent KD of K4 kissing-loop reporter.
771

Report apparent KD of K4 kissing-loop reporter for GGGAACUCUUACGAUACCAGCCGGAGUGAUGUUCCGCGCUUGGACGUAGUAACCCGCACCGGCCCUUGGCAGCGUGGAUCUUAUA [Esbedi] please.
82.7

Could you tell me which apparent KD of K4 kissing-loop reporter is on file for AAUAUCUAGUAUAUUUUUAAUAAAACAGAUACCAGUGAUAAUAGACACCCUUGGCAGCUGGUCGAGUGAUGUUCGUUUAUAUUAA [JR_SSTheophyA_Sub006] ?
176

Give its apparent KD of K4 kissing-loop reporter value. Item: GGCAUGGUGACGCGGCGGCCAUGCACUUGGGAGGAUAUGUUUCGUGACAGAAGGCCCAGUGAUGUUGGGUCUGUUCAAAAGGACU [Riteveat]
174

---

# Tested on: MS2 coat protein
# RUN DESCRIPTION: apparent KD of MS2 coat protein; designed switch direction (-1 OFF switch, 1 ON switch): 1; higher = weaker reporter binding
# CONDITION NOTES: input ligand: FMN 200 uM
Kindly return 1 if reported apparent KD of MS2 coat protein is no lower than 0.08 µM; return -1 if it is lower.

Examples with answers:
INPUT SEQUENCE	LABEL VALUE
GCUCGAAUCAAAACCAACAUGAGGAUCACCCAUGUAUGUUGGUAGGAUAUCGUUUGCUUUGCAAACGAGAAGGACCAAACGAGC [SameState NG3 #2] (Eterna round: R96, puzzle: Same State NG 3)	-1
UUAUCUCAGACAUGAGGAUCACCCAUGUGGUUAUGACUUAGACAGGAUAUAGUAGUAUCGAAAUACUAGAAGGGUCAUUUUAUU [JR_SSNG3_Sub021] (Eterna round: R96, puzzle: Same State NG 3)	-1
UGCCUGAGUCGAGGAUAUUAUGGAUCCUUUAAUACAUGAGGAUCACCCAUGUAAUUAAUUAUACAUGAGAAGGUGACUCAGGCA [SSNG2/11-B2] (Eterna round: R96, puzzle: Same State NG 2)	-1
CUGAGCAAUCAAGGAUAUCACGUCGUUUAGACGUGAGAAGGUGAUCAUAACAUGAGGAUCACCCAUGUAUUACAUGAAGCUCAG [SSNG1/1-A3] (Eterna round: R96, puzzle: Same State NG 1)	1
CAGUAUCGCGGAGGAUAUGGGCUGAGACCGGAGCAACUCUGGUCAACAUGAGGAUCACCCAUGUCCCAGAAGGCCGCGAUGCUG [Enquoninso] (Eterna round: R96, puzzle: Same State NG 2)	-1

Is apparent KD of MS2 coat protein at least 0.08 µM? Consider GAGUAGUUGAUAGGAUAUUGAUUGUUGUAGGAUCAAGAAGGAUCUAACAUGAGGAUCACCCAUGUAGGACUAUUCCUGUGUAUC [Parity 85 - Jieux - Same State NG 1] (Eterna round: R96, puzzle: Same State NG 1)
-1

Tell me whether apparent KD of MS2 coat protein is at least 0.08 µM here: GCCCGACUCACAGGAUAUGUACCGCCCGAAACAACAGAAGGGUGAGAUCCGGCAUGCACUGACAUGAGGAUCACCCAUGUCCUU [Gebege] (Eterna round: R96, puzzle: Same State NG 1)
1

Item CCGGUAAAUGGAGGAUAUGGAGCCUUAUUGGCUCCAGAAGGCUAACAUGAGGAUCACCCAUGUAUACCGGCGGUCAAUAGACCG [Eli NG1ss - 64] (Eterna round: R96, puzzle: Same State NG 1) with apparent KD of MS2 coat protein of 0.08 µM or above?
-1

For this sequence, is measured apparent KD of MS2 coat protein 0.08 µM or higher? AUAGUUUCCGAAGGAUAUGAUGAGGAUCACCCAUCAGAAGGUUGGCUAUUGGGCGGACAUGAGGAUCACCCAUGUCUUUCGGUU (Eterna round: R96, puzzle: Same State NG 1)
1

---

# Tested on: K4 kissing-loop RNA reporter;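 further: bound reporter read as fluorescence of individual clusters on recovered sequencing chips by microscopy, with normalized cluster intensities fitted with a binding model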
# RUN DESCRIPTION: apparent KD of K4 kissing-loop reporter; higher = weaker reporter binding
# CONDITION NOTES: Eterna round: R107; input ligand: tryptophan 2.4 mM
MEASURE NAME: apparent KD of K4 kissing-loop reporter (nM)
Report the value in nM with no unit label.

Guide cases for apparent KD of K4 kissing-loop reporter, answers given:
INPUT SEQUENCE	UNIT LABEL	apparent KD of K4 kissing-loop reporter
UUCGUCGCGCAUGAUACCAGCGAGAUUUAACGCCGAAUCCUCACGCAGUGAUGUUGCACCCGCCCUUGGCAGCAUAGCCGGUUAC [theeternabot_sameState_KL_Theo_B_13]	nM	199
UUUAGGAGUGGUGUUGAUUAGGGAGCGGAAGGAGCGCCGAGGAAGGCAGGUAGGUCGCCGGAUUAUAGUGAUGUUAUGAAGAGGG [ExArg.M]	nM	654

Which apparent KD of K4 kissing-loop reporter is listed for GCACUCCAUCGGACGUAAGUGAUGUUUACCCGAGGACCGGUACGGCCGCCACUCGACCGUGCAUAACCAAAUCAAAUAGCUUCCG [theeternabot_exclusion_KL_Trp_A_31] ?
221

Using the record for AAGGUUUAGCACGAUACCAGCCUGGAGGCCAGUGAUGUUGGCCGAUUUGAACAGAAUUAAGGCCCUUGGCAGCGUCUCUAAAACC [Dierra] , report its apparent KD of K4 kissing-loop reporter.
176

So what's the measured apparent KD of K4 kissing-loop reporter for this one? UUAGGCUCUCUUCUCAUUCGCUUAACCGAUACCAGAGUAAGCCCUCUCCCUUGGCAGCGGAGUGAUGUUCCGAGUGUUGAUAUUG [theeternabot_exclusion_KL_Theo_A_44]
107

Reported apparent KD of K4 kissing-loop reporter for AUUAUCAAUUUAUUAUAUAACUUUUCAGAAGGAGCGUGGAAGUACACAGGUAGGUCGCUGAAUAUAGGACUAGUGAUGUUAGUUA [JR_Nu_SSArginiA_Sub024] : what is it?
248

Record request: apparent KD of K4 kissing-loop reporter value, item GGGCAUCAGGCUGAUACCAGUGAUAAAGGAUAAGAGACAGGGAGUGAUGUUCCCUUUACCCACCCUUGGCAGCAGUUUAAGUUUG [Exclusion Theophylline B GF 16]
87.1

---

# Test system: MS2 coat protein
# RUN DESCRIPTION: apparent KD of MS2 coat protein; designed switch direction (-1 OFF switch, 1 ON switch): -1; higher = weaker reporter binding
# CONDITION NOTES: input ligand: FMN 200 uM
MEASURE NAME: apparent KD of MS2 coat protein (nM)
Respond numerically; units are nM and should not be typed.

Please review the following examples before continuing.
INPUT SEQUENCE	TESTED ON	apparent KD of MS2 coat protein [nM]
AGGUCCUUCUGGAGACAUGAGGAUCACCCAUGUCGAGUCAGCGAGGAUAUCGGUUAAUAAUGUGACGAGAAGGCGCGGACCGAU [Ex NG3 #55] (Eterna round: R96, puzzle: Exclusion NG 3)	MS2 coat protein	45.1
AGCUAGUCAGGAUAUACGAACACCUCAAAAGAGGUGAAGGGACAUGAGGAUCACCCAUGUAGAAGGGACUAGCA [Mat - Exclusion 2 - JL mod - D29] (Eterna round: R96, puzzle: Exclusion 2)	MS2 coat protein	167
CAUGCUUCAUAGGAUAUGGAAGACGUACCGUCGCUAGAAGGAUGAACAUGAGGAUCACCCAUGUAAUACAGGGC [Eternabot (L2) Solution 64] (Eterna round: R97, puzzle: Exclusion 6)	MS2 coat protein	169

Could you tell me which apparent KD of MS2 coat protein is on file for CCAGUGUGAGGAUAUACAUGGAUAGUUUUAUAUAGUAUGUUACAUGAGGAUCACCCAUGUAGAAGGUAUAUCGG [15.1, 13.8 kcal, A 31%] (Eterna round: R97, puzzle: Exclusion 2) ?
22.5

Can you look up the measured apparent KD of MS2 coat protein of UUUUGGCAUGUAGGAUAUGGGUCCGAUUAGGAUUUAGAAGGACAUGAGGAUCACCCAUGUGCAUUUAAUUGGUCUUUACCUUUU [EXclNG1-LROPPY12] (Eterna round: R96, puzzle: Exclusion NG 1) for me?
130
